# assayRemarks: NCI Yeast Anticancer Drug Screen. Data for the mec2-1 strain (AID 157)
# conditionsUsed: S. cerevisiae mec2-1 strain, at 50.0 µM, active compounds read high
This is part of a sample that, as a whole, favours compounds with a hit. Of some 79,000 tested, about 15% had one in any assay. Activity calls are given as the source filed them. No stated cut-off is given here; in the data, active means growth inhibition above about 70%; inactive means the rest.
Quick list: growth inhibition per entry.

[[record]]
compound = "O=C(Nc1ccc(Cl)cc1)Nc1nnc2nc(C(C(=O)c3ccc(F)cc3)c3nc4nnc(NC(=O)Nc5ccc(Cl)cc5)n4[nH]c3=O)c(=O)[nH]n12"
measuredvalue = "99.5% (active)"

[[record]]
compound = "Cc1ccc(CN2CC(=O)N3Cc4ccccc4CN3C(=O)C2)cc1"
measuredvalue = "6.6% (inactive)"

[[record]]
compound = "O=C(O)/C=C/c1ccc(Cl)c(Cl)c1"
measuredvalue = "64.3% (inactive)"

[[record]]
compound = "Cc1ccc2nc(C[n+]3cccc4ccccc43)ccc2c1"
measuredvalue = "81.1% (active)"

[[record]]
compound = "CCOc1ccc2c(ccc(/C=C\\c3cc(C)c4cccnc4c3O)[n+]2C)c1"
measuredvalue = "89.2% (active)"


Okay, now this compound:
Sample CC1(C)CC(=O)C2=C(C1)OC1=C(CC(C)(C)CC1=O)C2c1ccccc1[N+](=O)[O-] (stereo not given) ; growth inhibition observed: -13.3% (inactive)

---

# assayRemarks: NCI Yeast Anticancer Drug Screen. Data for the mec2-1 strain (AID 157)
# conditionsUsed: S. cerevisiae mec2-1 strain, at 5.0 µM (retest, dose inferred, filed as 0.5), active compounds read high
# Protocol: Growth inhibition of yeast strains with defined genetic alterations is measured as a screen for potential anti-cancer activity. Selected strains with alterations in DNA damage repair or cell cycle control were exposed to compounds and growth inhibition was measured relative to vehicle treated controls. The strain used in this assay is mec2-1
Compounds without any hit were thinned out: in the full panel of roughly 79,000, 15% have a hit.
Decide using growth inhibition: a value greater than or equal to 20% is Condition met, a smaller one is Condition not met.

[[record]]
molecule = "ClC1=C(Cl)C(Cl)(C(Cl)(Cl)Cl)C(Cl)=C1Cl"
labelvalue = "Condition met"

[[record]]
molecule = "CC(CN(C)C)C(/C=C/c1ccccc1)=N\\NC(=O)c1ccccc1 (stereo not drawn)"
labelvalue = "Condition not met"


query: Please tell me: is the molecule CCOC(=O)c1cnc2ccc(C3CCCCC3)cc2c1Nc1ccc2c(c1)OCO2 at or over 20% in terms of growth inhibition?
result: Condition not met

query: Please tell me: is the molecule O=S(=O)(Nc1ccccc1)c1ccccc1C#Cc1ccccc1 at or over 20% in terms of growth inhibition?
result: Condition not met

query: Please tell me: is the molecule CCCC(=O)Oc1ccc(-c2ccccc2)cc1Br at or over 20% in terms of growth inhibition?
result: Condition not met

query: Please tell me: is the molecule CS(=O)(=O)OCCN(CCOS(C)(=O)=O)c1ccc(C=Nc2ccc3oc(=O)ccc3c2)cc1 at or over 20% in terms of growth inhibition?
result: Condition met

query: Please tell me: is the molecule Nc1ccc2nc(N)sc2c1 at or over 20% in terms of growth inhibition?
result: Condition not met

---

# assayRemarks: NCI Yeast Anticancer Drug Screen. Data for the mec2-1 strain (AID 157)
# conditionsUsed: S. cerevisiae mec2-1 strain, at 50.0 µM
Compounds without any hit were thinned out: in the full panel of roughly 79,000, 15% have a hit. The source made the active and inactive calls. Rule as the data show it: active = growth inhibition above about 70%; inactive = the rest.
Respond with a class label; see class 1 = active, class 0 = inactive

As a guide, the following entries are already answered.
[[record]]
compound = "OCc1cc2c([nH]c3ccccc32)c(C(O)CO)n1 (stereo unspecified)"
labelvalue = "class 1"

[[record]]
compound = "Oc1cc(O)cc(O)c1"
labelvalue = "class 0"

[[record]]
compound = "COc1ccc(C2CC(=O)CC(=O)C2)cc1"
labelvalue = "class 0"


Next compound, please.
query: Recorded test outcome, item CCC(C)(C)c1ccc(OC(=O)C(C)OC(C)=O)cc1 (stereo unspecified)
result: class 1
